Provenance of the data: patent US8975417B2

Molecular target: His-CREBBP (1081-1197) bromodomain (Homo sapiens (Human))
Sequence (Q92793 1081-1197): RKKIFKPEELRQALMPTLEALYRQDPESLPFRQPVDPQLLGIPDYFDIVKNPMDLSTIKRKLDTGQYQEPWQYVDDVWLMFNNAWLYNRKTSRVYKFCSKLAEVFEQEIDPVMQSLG
Test: AlphaScreen in-vitro binding assay for CREBBP
Details: biochemical
Procedure: AlphaScreen In-Vitro Binding Assay for CREBBP In order to assess bromodomain selectivity, we set up a binding assay using the bromodomain encoded by the CREBBP gene. […] Reactions were incubated at 30° C. for 35 minutes. […] After 60 minutes incubation at room temperature, plates were measured in a Perkin Elmer EnVision multilabel reader. IC50 values were determined from percent inhibition values at different compound concentrations by non-linear regression analysis. […]
pIC50: −log10 of the molar value.
parameter-measured: pIC50

Could you please provide reported pIC50 for Cc1nn(-c2cncn2C)c2c1C(c1ccc(Cl)cc1)N(c1cc(C)c(=O)n(C)c1)C2=O (centres unmarked) ? Thanks!
5.21

(I) Cc1cc(N2C(=O)c3c(cnn3C(C)C)C2c2ccc(Cl)cc2)cn(C)c1=O (centres unmarked)
(II) CCn1nc(C)c2c1C(=O)N(c1cc(C)c3nnc(C)n3c1)[C@@H]2c1ccc(F)cc1F
(III) CCn1nc2c(c1C)C(c1ccc(F)cc1F)N(c1cc(C)c3nnc(C)n3c1)C2=O (centres unmarked)
Reorder: pIC50, max to min. Field: ranking. Enter the labels in the order requested.
I, II, III
